This collection of values is drawn from ChEMBL document CHEMBL3988442.

# Test system: Leishmania donovani
# Measurement notes: Leishmania intramacrophage assay
# Assay type: functional, organism-based
# Set-up: scale not given: in the data most compounds retested in dose-response had high values
# Condition description: 30.3 µM; […]
In all, about 69,000 compounds went through this assay and about 1,000 (1.4%) showed an effect of 50% or more. The sample holds strong results, similar compounds and a random draw of the others, so the mix is not that of the screen.
Lab note: anything with Percent Effect at or over 20% counts as label 1; the rest go in label 0.

Hi team, for COc1nc2cc(C)ccc2cc1CN(C)Cc1n[nH]c2c1CCCC2 , is the recorded Percent Effect at or above 20%?
label 0

Is reported Percent Effect greater than or equal to 20% here: Cc1nc(NC2(CN3CCCCC3)CCCCC2)c2cnn(C)c2n1
label 1

Textbook exercise: given the entry CCN(CC)c1ncnc2c1CCN(CC1CCOCC1)CC2.O=C(O)C(F)(F)F , state whether its Percent Effect is greater than or equal to 20%.
label 1

Decide: is the reported value of Percent Effect for COCC1(Nc2nc(C)nc3c2cnn3C)CCCC1 equal to or greater than 20%?
label 1

Is reported Percent Effect greater than or equal to 20% here: Cc1ccc(C2CCCN2S(=O)(=O)N(C)Cc2cnn(C)c2)o1 (stereo not drawn)
label 0
